# koff annotations
- systemName: T1, human IL-17A/F (human, UniProt Q16552 24-155; Q96PD4 31-163)
- T1 construct: Recombinant; biotinylated in the ELISA; also called hIL-17A/F; HuIL-17A/F
- T1 sequence (Q16552 24-155, chain 1 of 2): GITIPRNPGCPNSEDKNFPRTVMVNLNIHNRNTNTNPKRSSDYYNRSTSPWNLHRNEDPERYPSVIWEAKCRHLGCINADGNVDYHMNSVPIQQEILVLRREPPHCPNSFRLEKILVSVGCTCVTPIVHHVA
- T1 sequence (Q96PD4 31-163, chain 2 of 2): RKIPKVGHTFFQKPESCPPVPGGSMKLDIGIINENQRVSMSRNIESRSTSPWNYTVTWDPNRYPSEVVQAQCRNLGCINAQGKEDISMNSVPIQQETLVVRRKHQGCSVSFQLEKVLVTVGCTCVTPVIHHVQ
- procedureText: SPR (Biacore 3000), antibody captured by anti-Fc, antigen in solution;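 note: purified recombinant IL-17 antigens flowed over captured antibodies in HBS-EP buffer, global Langmuir one-to-one fit of association and dissociation phases, KD derived from koff over kon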
All answers are understood in s⁻¹, so give the number only.

In the examples that follow, each entry is paired with its recorded koff.
binder: IL17-h5C5.21 (antibody, V domains shown, IgG; constant regions not specified; also called h5C5.21 (VH.1b-Vk.3c)) VH: EVQLVQSGAEVKKPGASVKVSCKASGYTFTDYEFHWVRQAPGQGLEWIGVIHPGNGGTAYNQNFRDRATLTADKSTSTAYMELSSLRSEDTAVYYCTRFLTYEGYFDYWGQGTLVTVSS VL: NIVMTQSPATLSVSPGERATLSCKASQSVSIDVGWFQQKPGQSPRLLIYHASNRYTGVPARFSGSGSGTDFTLTISSLQPEDFAVYFCQQDYSSPYTFGQGTKLEIKR
obsValue: 0.00111

binder: IL17-h10F7.11 (antibody, V domains shown, IgG; constant regions not specified; also called h10F7.11 (VH.1a-Vk.2a)) VH: EVQLVQSGAEVKKPGSSVKVSCKASGYTFTDYEIHWVRQAPGQGLEWIGVNDPESGGTFYNQKFDGRATLTADKSTSTAYMELSSLRSEDTAVYYCTRYYRYESFYGMDYWGQGTTVTVSS VL: EIVLTQSPDFQSVTPKEKVTITCSASSSISYIYWFQQKPDQSPKRWIYATFELASGVPSRFSGSGSGTDYTLTINSLEAEDAATYYCHQRSSYPWTFGQGTKLEIKR
obsValue: 0.00086

For the next question, use this binder.
Ask: Find the recorded koff belonging to IL17-h5C5.18 (antibody, V domains shown, IgG; constant regions not specified; also called h5C5.18 (VH.1b-Vk.1c)) VH: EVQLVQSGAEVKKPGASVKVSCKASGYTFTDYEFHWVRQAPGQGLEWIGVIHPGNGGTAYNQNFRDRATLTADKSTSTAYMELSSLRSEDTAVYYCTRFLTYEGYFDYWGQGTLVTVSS VL: NIVMTQSPSSLSASVGDRVTITCKASQSVSIDVGWFQQKPGKSPKLLIYHASNRYTGVPSRFSGSGSGTDFTFTISSLQPEDFATYFCQQDYSSPYTFGQGTKLEIKR and report it.
Result: 0.00101
